# Tested on: P12-Ichikawa
# ASSAY_OVERVIEW: cell viability relative to DMSO control; higher = less cytotoxic
# REPORTED_CONDITIONS: RPMI 5 mM glucose + 10% dialyzed FBS; 48 h; 0.569 µM
Rule for this label: Yes means cell viability is less than 80%; No means cell viability is at least 80%.

Task: Given the entry `COC1=CC2=C(C=C1OC)[C@H]3[C@@H](CO2)OC4=C(C=CC5=C4\C=C/C(C)(C)O5)C3=O` , would its reported cell viability be below 80%?
Result: Yes

Task: Hello, I'm reviewing records and need to know if cell viability of `Cc1cn(CCN2CCN(c3ccccc3-c3cc(C#N)cc(C(=O)NCCCN4CCCC4)c3)CC2)c2ccccc12` is below 80%. Could you check?
Result: No

Task: Is cell viability of `CC(=O)[C@H]1CC[C@H]2[C@@H]3CCC4=CC(=O)CC[C@]4(C)[C@H]3CC[C@]12C` strictly below 80%?
Result: No

Task: Given `N[C@@H](CC(=O)N1CCn2c(nnc2C(F)(F)F)C1)Cc1cc(F)c(F)cc1F` , is recorded cell viability strictly lower than 80%?
Result: No

Task: # strict comparison: is reported cell viability < 80%? input = `C[N+](C)([O-])CCNc1ccc(NCC[N+](C)(C)[O-])c2c1C(=O)c1c(O)ccc(O)c1C2=O`
Result: Yes

Task: Please state whether cell viability is below 80% for CO[C@@H]1C(N(C)C(=O)c2ccccc2)C[C@H]2O[C@]1(C)n1c3ccccc3c3c4c(c5c6ccccc6n2c5c31)C(=O)NC4=O (stereo partly drawn)
Result: No

Task: Given the entry `CC(C)C[C@H](NC(=O)[C@H](Cc1ccccc1)NC(=O)c1cnccn1)B(O)O` , would its reported cell viability be below 80%?
Result: Yes

Task: # strict comparison: is reported cell viability < 80%? input = COC1=CC=C(C=C1)C2CC(=N/N2C3=CC=C(C=C3)[S+](N)([O-])=O)\C4=CC=CC=C4 (stereo not drawn)
Result: No
